Here the recorded z-score is given for each entry.
assay: plasmodial surface anion channel blockers, osmotic lysis – cell-based, P. falciparum Indochina, OD700, 1 h, primary screen (AID 1154); details: P. falciparum Indochina infected RBC osmotic lysis, higher = more signal, called active from +8 up or from −8 down
Kindly provide the number alone.

Field request: z-score | item: O=C1OCC=C[C@H]2OC34C=CCN(CCN5CCOCC5)C(=O)[C@H]3N(CCCCCCO)C(=O)[C@@H]4[C@@H]12 (stereo partly specified) 4.96

Could you tell me which z-score is on file for COCCOC(=O)N1C(=O)[C@@]2(c3cc(C#CC4=CCCCC4)ccc31)[C@H](c1ccc(OCCO)cc1)N1[C@H](c3ccccc3)[C@H](c3ccccc3)OC(=O)[C@H]1[C@@H]2C(=O)Nc1nc2ccccc2s1 ? 2.35

# get_value(readout='z-score', item= CCOC(=O)C1=C[C@@H](C(C)(C)C)N(S(=O)(=O)c2ccc(C)cc2)[C@H]1c1ccc(Cl)c(Cl)c1 ) 1.92

If you can, please state the reported z-score value of O=C1C2C=CC(C(O)c3ccc(B(O)O)cc3)N(Nc3ccc([N+](=O)[O-])cc3)C2C(=O)N1c1ccccc1 (stereo unspecified) . 2.01

Record request: z-score value, item [N-]=[N+]=NCc1ccccc1[C@H]1OC(c2ccc(OCCCO)cc2)=N[C@@]1(Cc1ccccc1)C(=O)O 17.6

Further cases:
Name the reported z-score value associated with the compound [N-]=[N+]=NCc1ccccc1C[C@]1(C(=O)N2CCOCC2)N=C(c2ccc(OCCCO)cc2)O[C@H]1c1ccccc1 29.4

Can you share its z-score? I mean this compound: COCCOC(=O)N1C(=O)[C@@]2(c3cc(C#Cc4ccc(OC)cc4)ccc31)[C@H](c1ccc(O)cc1)N1[C@H](c3ccccc3)[C@H](c3ccccc3)OC(=O)[C@H]1[C@@H]2C(=O)N1CCN(c2ncccn2)CC1 1.45

Which z-score value is on record for C=C(COC)C(=O)CC[C@@H](OC(=O)c1ccccc1-c1ccccc1C(=O)O)c1ccc(CO)o1 ? 0.508

Tell me the measured z-score of [N-]=[N+]=Nc1ccccc1[C@H]1OC(c2ccc(OCCCO)cc2)=N[C@@]1(CCS(=O)(=O)c1ccccc1)C(=O)N1CCOCC1 , please. 31

What value of z-score has been recorded for this entry: NC(=O)NCC#Cc1ccc2c(c1)[C@]1(C(=O)N2)[C@H](C(=O)NC[C@H](O)c2ccccc2)[C@H]2C(=O)O[C@H](c3ccccc3)[C@H](c3ccccc3)N2[C@@H]1c1ccccc1OCCO 1.15

Which z-score is reported for this compound? CC(c1ccccc1)C(O)C1C=CC2C(=O)N(Cc3ccccc3)C(=O)C2N1n1cnnc1 (stereo unspecified) 1.78

# get_value(readout='z-score', item= CC(c1ccccc1)C(O)C1C=CC2C(=O)N(c3ccccc3)C(=O)C2N1Nc1ccccc1F (stereo unspecified) ) 0.784

Which measured z-score value corresponds to COCCCNC(=O)[C@@]1(C)c2ccccc2C(=O)N(Cc2ccccc2)[C@H]1c1ccc(CO)cc1 ? 2.68

Suppose we examine the compound C=C(COC)C(=O)CC[C@H](OC(=O)c1cccnc1)c1ccccc1OCCO ; what z-score value has been reported? 8.77

I would be grateful if you could share the reported z-score for NC(=O)[C@]1(Cc2ccccc2)N=C(c2ccc(OCCCO)cc2)O[C@@H]1c1ccccc1 . 26.5

GET /values?readout=z-score&item= CN1C(=O)C2C=CC(C(O)c3ccccc3)N(NC(=O)OC(C)(C)C)C2C1=O (stereo unspecified) -0.0278

Dear colleague, I am looking for the recorded z-score of the following compound: CN1C(=O)C2C=CC(C(O)C=Cc3ccc([N+](=O)[O-])cc3)N(N3CCCCC3)C2C1=O (stereo unspecified) 2.72

Need z-score of C=CCCN(CC#C[C@H]1Oc2ccccc2S(=O)(=O)N2CCC[C@@H]12)S(=O)(=O)c1ccc(C)cc1 , thanks. 3.75

These entries and their values trace back to PubChem BioAssay.
